Tested on: LXRa homodimer (NR concentration 270 nM)
Test: PBM binding z-score (relative to random genomic background probes); higher = stronger binding; sequences stand for … in GC…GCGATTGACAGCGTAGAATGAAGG
Label rule, in plain words: PBM binding z-score of 0.6 and up is Fulfilled, under 0.6 is Not fulfilled.

Threshold query (PBM binding z-score >= 0.6) on `CGTCCAAGTTCAAGGTAACGTAACAGAAAGCAGC`
Not fulfilled

Threshold query (PBM binding z-score >= 0.6) on `ACAGACAGGGGATGAAGGTAACTCAGGCTATCAT`
Not fulfilled

Threshold query (PBM binding z-score >= 0.6) on `TCTATCAGTTGAAGGGCAACCGACGAGTCCGTTT`
Not fulfilled

Threshold query (PBM binding z-score >= 0.6) on `CCTACTGGGCCATTCAGATGTCATTGATCATATG`
Not fulfilled

Threshold query (PBM binding z-score >= 0.6) on `AATTCAGGGTCATCGTAGGCCAGAGTACGCACAG`
Fulfilled

Threshold query (PBM binding z-score >= 0.6) on `ATACCAAGGTGATCGTTAGGTCGTTGATACTAAC`
Not fulfilled

====

Provide the recorded PBM binding z-score for the entries that follow.
Test system: PPARg homodimer (NR concentration 180 nM)
Test: PBM binding z-score (relative to random genomic background probes); higher = stronger binding; sequences stand for … in GC…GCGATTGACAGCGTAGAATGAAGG
Number only, no unit.

Could you tell me which PBM binding z-score is on file for `ATATGTCGGTTAAGGGTCATTCAGGTTGGTTCGC` ?
3.13

Could you tell me which PBM binding z-score is on file for `TATACAGGCTCAAAGGCCAGAGTACGAATGTCGA` ?
-0.146

Could you tell me which PBM binding z-score is on file for `GGTACAGGGTCAAGGCCAGAGTACGCGTATTGAT` ?
2.35

Could you tell me which PBM binding z-score is on file for `ATACCAAGGTGATCGTGAGCTCGTTGATACTAAC` ?
0.404

Could you tell me which PBM binding z-score is on file for `TCTGCTAGGTCAACGATGGTTAGCTAATCTGCTA` ?
0.625

Could you tell me which PBM binding z-score is on file for `CCTTACGGGTCAAGGTTATAGTACGGGTGGTACG` ?
2.79

Could you tell me which PBM binding z-score is on file for `GCGACTGGGGCAAAGCAGGTTCCCATAAGGTTGG` ?
-0.328

Could you tell me which PBM binding z-score is on file for `CCTACTGGGCCATTCAGAGATCATTGATCATATG` ?
-0.3

Could you tell me which PBM binding z-score is on file for `TCTAGTTGGTCAAAGCTCACACACTCGAAATGCG` ?
1.1

Could you tell me which PBM binding z-score is on file for `ACTAGCAGGCCAAGTATGGGTCACTCAAACAAAG` ?
0.52

Could you tell me which PBM binding z-score is on file for `TTTTGTAGATCAATAGAGGTTAAGAAAGTGCGCT` ?
1.32

Could you tell me which PBM binding z-score is on file for `TCTAGTTGCTCAAAGGTCACACACTCGAAATGCG` ?
3.79

Could you tell me which PBM binding z-score is on file for `TCTTGTAGATCAAAGATTAAGAAAGCCGAAGCCT` ?
-0.224

Could you tell me which PBM binding z-score is on file for `TCTTGTAGACCAACAGGAGGTTAAGAAAGATCGA` ?
-0.0799

Could you tell me which PBM binding z-score is on file for `CTACCAAGGTGAACAAGGTCGTGGATTACTATTC` ?
1.98

Could you tell me which PBM binding z-score is on file for `CCTACTGGGGCATTCAGAGGTCATTGATCATATG` ?
2.6

Could you tell me which PBM binding z-score is on file for `TCTTGTACATCAAGCAGGTTAAGAAAGCCTGAGT` ?
0.286

Could you tell me which PBM binding z-score is on file for `CGTCCAAGGTCATAGGAGGTCAGTAAAGACAGAT` ?
5.13

Could you tell me which PBM binding z-score is on file for `CCTTACGGCTCAAGGTTATAGCACGGGTGGTACG` ?
0.358

Could you tell me which PBM binding z-score is on file for `TTACCAAGGCGAAAGGTCGTTGATGCACGCCTTG` ?
0.815

Could you tell me which PBM binding z-score is on file for `CGAACTAGGTCATAACAGGACAGTGAAGGATGAT` ?
2.38

Could you tell me which PBM binding z-score is on file for `CAAACTAGGTCACCGGAAGGTCAAAGTACGCATG` ?
9.62

Could you tell me which PBM binding z-score is on file for `TAGCCTAGGTCATTGGGCCAGTACAGTACGCATC` ?
1.12

Could you tell me which PBM binding z-score is on file for `CATACAGGGTTAGCTAGGCCAGAGTAGGGACGGC` ?
-0.367

Could you tell me which PBM binding z-score is on file for `TGAATGCGGTTAAAGATCAGGGAACGTGGCGTCG` ?
0.0368

Could you tell me which PBM binding z-score is on file for `CCGACTGGGGCAAGATTACCATAACGCACAGCCA` ?
-0.195

Could you tell me which PBM binding z-score is on file for `GCGTGTAGATCAAGGTTAAGAAAGACTAAGCTAA` ?
0.178

Could you tell me which PBM binding z-score is on file for `TAGCCTAGGTCATTGAGCCAGTATAGTACGCATC` ?
0.0834

Could you tell me which PBM binding z-score is on file for `ATCTCTAGGTAAAGATAGTTCGGTGAATGCAAAT` ?
0.784

Could you tell me which PBM binding z-score is on file for `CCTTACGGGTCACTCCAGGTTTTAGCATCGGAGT` ?
3.03

Could you tell me which PBM binding z-score is on file for `CCTGCTAGGTCACTGGTCAGCTAAAGCAGCTCGC` ?
1.51

Could you tell me which PBM binding z-score is on file for `GCTATTAGTTGAAAGGCCAACCGAATGATTCTCG` ?
0.874

Could you tell me which PBM binding z-score is on file for `CAAACTAGGTAACCGGAAGGTCAAAGTCCGCATG` ?
3.53

Could you tell me which PBM binding z-score is on file for `ATCTCTAGGTAAGACTCAGTCCAGTGAAGAACGC` ?
0.717

Could you tell me which PBM binding z-score is on file for `CACCCTAGGTCAGGGCCAGTATAGGAGGAACGTT` ?
1.71

Could you tell me which PBM binding z-score is on file for `CCAGAGAGGTGAGAAGGTAACTCAGCCTCGATTA` ?
0.918

Could you tell me which PBM binding z-score is on file for `ACTATTAGTTGAGACGAGGGCAACCGATAGGTTG` ?
0.059

Could you tell me which PBM binding z-score is on file for `AGAATGAGGTAATTAAGATCAGGGAATTGCGGTC` ?
-0.649

Could you tell me which PBM binding z-score is on file for `TAGCCTAGGTCATGGGCCAGAATACCACGCGAAC` ?
0.86

Could you tell me which PBM binding z-score is on file for `ATCGAAAGGTCCTGAGGTGAGTATACAGAAAGGC` ?
0.413

Could you tell me which PBM binding z-score is on file for `ATCTCTAGGTAACAAGTGCAGTGAAAGAGAGGAC` ?
0.521

Could you tell me which PBM binding z-score is on file for `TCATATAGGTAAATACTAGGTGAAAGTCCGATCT` ?
1.15

Could you tell me which PBM binding z-score is on file for `TCATATAGGTAAAGGCGAAAGTCGAACGATATGA` ?
0.221

Could you tell me which PBM binding z-score is on file for `CCGTCTGGGGCATAAGGTTACCATAAGCCAGCCC` ?
0.475

Could you tell me which PBM binding z-score is on file for `TCTCGGAGGAGACGAAGGTCAGAGCTTTCCAGAG` ?
0.692

Could you tell me which PBM binding z-score is on file for `CGTCCAAGGTCATAGGAGGGCAGTGAAGACAGAT` ?
2.4

Could you tell me which PBM binding z-score is on file for `ATTAGCAGGCCAAGGGTCACTCAAGATTAGTCCG` ?
1.61

Could you tell me which PBM binding z-score is on file for `AGAATGAGGTTATACGTGGATCAGGGAAGAAAGT` ?
1.69

Could you tell me which PBM binding z-score is on file for `CCTACTGGGCCAAAAAGGTGATTGATGCCGATAA` ?
0.459

Could you tell me which PBM binding z-score is on file for `GCTGCTAGGTCAGGTTGGTCAGCTATCGGGTACG` ?
1.22

Could you tell me which PBM binding z-score is on file for `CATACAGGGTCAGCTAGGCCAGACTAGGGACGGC` ?
0.901
